Data provenance: paper PMC4494771

# melting point values compiled below

Examples with answers:
[
  {
    "compound": "COc1cncc(C(N)=NS(=O)(=O)c2ccccc2Cl)n1 [Compound 13]",
    "melting point": "227 to 230 °C"
  },
  {
    "compound": "NC(=NS(=O)(=O)c1ccccc1Cl)c1ccncc1 [Compound 5]",
    "melting point": "182 to 185 °C"
  },
  {
    "compound": "NC(=NS(=O)(=O)c1cnccc1Cl)c1ccncc1 [Compound 6]",
    "melting point": "215 to 218 °C"
  }
]

Problem: // query melting point value for entry NC(=NS(=O)(=O)c1ccccc1Cl)c1cnccn1 [Compound 9]
Solution: 173 to 174 °C

Problem: Given COc1cncc(C(N)=NS(=O)(=O)c2cnccc2Cl)n1 [Compound 14] , state its recorded melting point.
Solution: 265 to 270 °C (dec.)

Problem: Any idea what melting point was measured for N/C(=N\S(=O)(=O)c1ccccc1Cl)c1cccnc1 [Compound 3] ?
Solution: 188 to 190 °C

Problem: # query: melting point of entry NC(=NS(=O)(=O)c1cnccc1Cl)c1ncccn1 [Compound 8]
Solution: 162 to 163 °C

Problem: Please give the measured melting point for this compound: NC(=NS(=O)(=O)c1ccccc1Cl)c1ccccn1 [Compound 1]
Solution: 140 to 142 °C
